- system-name: KDR (Homo sapiens)
- Construct: purchased Carna Biosciences
- Sequence (P35968 20-1356): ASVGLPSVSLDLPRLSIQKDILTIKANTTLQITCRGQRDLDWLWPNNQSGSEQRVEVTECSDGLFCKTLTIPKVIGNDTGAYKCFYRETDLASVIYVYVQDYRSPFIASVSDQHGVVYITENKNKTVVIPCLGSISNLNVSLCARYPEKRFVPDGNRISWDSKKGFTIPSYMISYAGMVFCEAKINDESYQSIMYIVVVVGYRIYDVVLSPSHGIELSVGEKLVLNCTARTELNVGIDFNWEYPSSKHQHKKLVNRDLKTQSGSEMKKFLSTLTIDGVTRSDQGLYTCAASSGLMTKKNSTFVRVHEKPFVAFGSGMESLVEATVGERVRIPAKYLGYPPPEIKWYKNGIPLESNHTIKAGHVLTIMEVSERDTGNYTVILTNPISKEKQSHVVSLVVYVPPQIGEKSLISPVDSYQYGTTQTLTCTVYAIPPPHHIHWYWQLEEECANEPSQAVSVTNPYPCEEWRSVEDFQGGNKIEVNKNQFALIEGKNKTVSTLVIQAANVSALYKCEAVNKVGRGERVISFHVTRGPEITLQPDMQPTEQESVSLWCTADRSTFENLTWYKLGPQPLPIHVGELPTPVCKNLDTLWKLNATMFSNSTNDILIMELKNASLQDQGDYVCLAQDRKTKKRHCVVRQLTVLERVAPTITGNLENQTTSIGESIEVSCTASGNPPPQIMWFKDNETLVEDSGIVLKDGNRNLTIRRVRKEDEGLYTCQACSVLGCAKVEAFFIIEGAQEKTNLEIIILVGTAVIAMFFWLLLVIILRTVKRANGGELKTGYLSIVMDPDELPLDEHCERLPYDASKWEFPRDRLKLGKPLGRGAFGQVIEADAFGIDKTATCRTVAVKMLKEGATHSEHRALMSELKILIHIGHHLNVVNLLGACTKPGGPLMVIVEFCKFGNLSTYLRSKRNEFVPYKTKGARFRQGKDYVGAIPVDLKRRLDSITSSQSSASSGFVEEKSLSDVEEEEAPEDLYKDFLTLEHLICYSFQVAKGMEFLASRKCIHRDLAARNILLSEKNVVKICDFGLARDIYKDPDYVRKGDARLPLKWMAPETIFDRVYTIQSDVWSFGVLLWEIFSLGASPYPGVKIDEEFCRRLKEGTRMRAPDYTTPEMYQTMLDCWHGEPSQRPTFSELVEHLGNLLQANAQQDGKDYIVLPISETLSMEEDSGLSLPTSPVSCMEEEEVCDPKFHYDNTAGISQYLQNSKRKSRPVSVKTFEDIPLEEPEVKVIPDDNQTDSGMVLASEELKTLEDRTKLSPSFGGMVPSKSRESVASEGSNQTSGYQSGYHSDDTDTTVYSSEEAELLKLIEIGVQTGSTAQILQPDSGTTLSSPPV
- assay-overview: LabChip (Caliper) kinase assay, KDR
- Format: biochemical
- applied-conditions: compound at 10 nM, read-out: remaining kinase activity (in %) / percentage of inhibition
Consider the following compounds and their measured inhibition at 0.01 µM readings.
The figure you give is taken to be in %; do not add the unit.

Worked cases, inhibition at 0.01 µM given:
[
  {
    "compound": "C[C@@H]1O[C@@H](n2c3ccccc3c3c4c(c5c6ccccc6[nH]c5c32)CNC4=O)C[C@H](O)[C@H]1O [formula (XIII), N^13-1′-β-L-olivosyl-k252c]",
    "inhibition at 0.01 µM (%)": 7
  },
  {
    "compound": "C[C@@H]1O[C@@H](n2c3ccccc3c3c4c(c5c6ccccc6[nH]c5c32)C(=O)NC4=O)[C@H](O)[C@H](O)[C@H]1O",
    "inhibition at 0.01 µM (%)": -7
  },
  {
    "compound": "C[C@@H]1O[C@@H](n2c3ccccc3c3c4c(c5c6ccccc6[nH]c5c32)CNC4=O)C[C@@H](O)[C@H]1O [formula (XIV), N^13-1′-β-L-digitoxosyl-k252c]",
    "inhibition at 0.01 µM (%)": 1
  },
  {
    "compound": "C[C@H]1O[C@@H](n2c3ccccc3c3c4c(c5c6ccccc6[nH]c5c32)C(=O)NC4=O)C[C@@H](O)[C@@H]1O",
    "inhibition at 0.01 µM (%)": 2
  }
]

Next compound, please.
Q) Reported inhibition at 0.01 µM for C[C@H]1O[C@@H](n2c3ccccc3c3c4c(c5c6ccccc6[nH]c5c32)CNC4=O)C[C@@H](O)[C@@H]1O [formula (XV), N^13-1′-β-D-olivosyl-k252c] : what is it?
A) -4

====

Each record here notes measured remaining kinase activity (in %) / percentage of inhibition.
- Tested on: CamK2a
- assay-overview: LabChip (Caliper) kinase assay, CamK2a
- Assay type: biochemical
- applied-conditions: compound at 10 nM
Give the value in % but do not write % after it.

[
  {
    "molecule": "C[C@H]1O[C@@H](n2c3ccccc3c3c4c(c5c6ccccc6[nH]c5c32)CNC4=O)C[C@@H](O)[C@@H]1O [formula (XV), N^13-1′-β-D-olivosyl-k252c]",
    "number": "−6"
  },
  {
    "molecule": "C[C@@H]1O[C@@H](n2c3ccccc3c3c4c(c5c6ccccc6[nH]c5c32)CNC4=O)C[C@@H](O)[C@H]1O [formula (XIV), N^13-1′-β-L-digitoxosyl-k252c]",
    "number": "−7"
  },
  {
    "molecule": "C[C@H]1O[C@@H](n2c3ccccc3c3c4c(c5c6ccccc6[nH]c5c32)C(=O)NC4=O)C[C@@H](O)[C@@H]1O",
    "number": 4
  },
  {
    "molecule": "C[C@@H]1O[C@@H](n2c3ccccc3c3c4c(c5c6ccccc6[nH]c5c32)CNC4=O)C[C@H](O)[C@H]1O [formula (XIII), N^13-1′-β-L-olivosyl-k252c]",
    "number": "−6"
  },
  {
    "molecule": "C[C@@H]1O[C@@H](n2c3ccccc3c3c4c(c5c6ccccc6[nH]c5c32)C(=O)NC4=O)[C@H](O)[C@H](O)[C@H]1O",
    "number": "−5"
  }
]

Q) // returns reported remaining kinase activity (in %) / percentage of inhibition for input C[C@@H]1O[C@@H](n2c3ccccc3c3c4c(c5c6ccccc6[nH]c5c32)CNC4=O)[C@H](O)[C@H](O)[C@H]1O [formula (XII), N^13-1′-β-L-rhamnosyl-k252c]
A) −6

Q) Returns the measured remaining kinase activity (in %) / percentage of inhibition for the input molecule. Input: C[C@@H]1O[C@@H](n2c3ccccc3c3c4c(c5c6ccccc6[nH]c5c32)C(=O)NC4=O)C[C@@H](O)[C@H]1O
A) 15

Q) Request the reported remaining kinase activity (in %) / percentage of inhibition associated with C[C@@H]1O[C@@H](n2c3ccccc3c3c4c(c5c6ccccc6[nH]c5c32)C(=O)NC4=O)C[C@H](O)[C@H]1O
A) 36
